# System: LOC_OS07G07230-cb001;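 also: purified Escherichia coli-expressed rice kinase domain construct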
# assay.overview: thermal shift delta Tm vs DMSO control; higher = stronger stabilization (binding)
# measurement.setup: 12.5 µM; protein concentration 2 µM
Counter-ions that a name gives are not always drawn.
Please go through the items and note down their thermal shift delta Tm.
API: value field is a number in °C; no unit string.

Would you mind telling me what thermal shift delta Tm value was observed for CCCCNc1ncc(-c2ccc(CN3CCOCC3)cn2)c(NC2CCC(O)CC2)n1 (centres undefined) ?
0.71

// same read-out, input: CNC(=O)c1cc(Oc2ccc(NC(=O)Nc3ccc(Cl)c(C(F)(F)F)c3)cc2)ccn1 [Sorafenib Tosylate]
0.6

// same read-out, input: Cc1cc(Nc2nc(N[C@@H](C)c3ncc(F)cn3)ncc2Cl)[nH]n1
0.17

// same read-out, input: CS(=O)(=O)CCNCc1ccc(-c2ccc3ncnc(Nc4ccc(OCc5cccc(F)c5)c(Cl)c4)c3c2)o1
-0.12

// same read-out, input: CONC(=O)c1ccccc1Nc1cc(Nc2cc(C)nn2C(C)C)ncc1Cl
0.55

// same read-out, input: c1ccc(-c2[nH]ncc2-c2ccnc3ccccc23)nc1
0.53

// same read-out, input: Cn1c2ccccc2c2c3c(c4c5ccccc5n(CCC#N)c4c21)CNC3=O
1.18

// same read-out, input: C[C@@H]1CN(CC(=O)Nc2ccc3c(c2)Cc2cccc(-c4cc(=O)cc(N5CCOCC5)o4)c2S3)C[C@H](C)O1
-0.36

// same read-out, input: Cc1c(NC(=O)OC[C@@H]2COCCN2)cn2ncnc(Nc3ccc4c(cnn4Cc4cccc(F)c4)c3)c12
0.29

All values here come from the supplement of paper PMC9694430.
